target under test: full length active recombinant SYK enzyme (Homo sapiens, UniProt P43405)
Construct: full length active recombinant SYK enzyme (Millipore, Calif.)
protocol description: Inhibition of Syk tyrosine phosphorylation activity (LANCE TR-FRET kinase assay)
pIC50: −log10 of the molar value.
quantity kind: pIC50

Observe how each entry below is paired with its result.
| compound | obs value |
| --- | --- |
| COC[C@H](CN)Nc1nc(Nc2cccc(-n3nccn3)c2)c(C(N)=O)cc1F | 8.00 to 9.00 |
| Cc1cccc(Nc2nc(NC[C@@H](N)CC(F)F)c(F)cc2C(N)=O)c1 | 7.00 to 8.00 |
| NC(=O)c1cc(F)c(N[C@@H]2CCCC[C@@H]2N)nc1Nc1cc(F)c[n+]([O-])c1 | 6.00 to 7.00 |
| COc1ncc(Nc2nc(N[C@@H]3CCCC[C@@H]3N)c(F)cc2C(N)=O)cn1 | 6.00 to 7.00 |
| Cc1ccc(Nc2nc(N[C@@H]3CCCC[C@@H]3N)c(F)cc2C(N)=O)cc1 | 8.00 to 9.00 |
| CC[C@@H](Nc1nc(Nc2cnc3ncccc3c2)c(C(N)=O)cc1F)C(N)=O | 7.00 to 8.00 |
| NC(=O)c1cc(F)c(N[C@@H]2CCCC[C@@H]2N)nc1Nc1cncnc1 | 6.00 to 7.00 |
| NC(=O)c1cc(F)c(N[C@@H]2CCCC[C@@H]2N)nc1Nc1ccc(-n2nccn2)cc1 | 7.00 to 8.00 |
| CC[C@@H](Nc1nc(Nc2ccn3ccnc3c2)c(C(N)=O)cc1F)C(N)=O | 6.00 to 7.00 |
| CN1CCC(c2ccc(Nc3nc(N[C@@H]4CCCC[C@@H]4N)c(F)cc3C(N)=O)cc2)CC1 | 7.00 to 8.00 |

Task: Short answer please: pIC50, full length active recombinant SYK enzyme (Homo sapiens, UniProt P43405), entry "COc1ccc(C[C@@H](Nc2cc(Nc3cc(C)ns3)c(C(N)=O)cc2F)C(N)=O)cc1"
Output: 7.00 to 8.00

Task: What is its pIC50 for full length active recombinant SYK enzyme (Homo sapiens, UniProt P43405)? Entry: "N#Cc1cc(C(N)=O)c(Nc2ccc3ncsc3c2)nc1N[C@@H]1CCCC[C@@H]1N"
Output: 8.00 to 9.00

Task: Recorded pIC50 for "Cc1cc(Nc2cc(N[C@H](CC3CC3)C(N)=O)ccc2C(N)=O)sn1" with full length active recombinant SYK enzyme (Homo sapiens, UniProt P43405), please?
Output: 7.00 to 8.00

Task: Identify the measured pIC50 of "NC(=O)c1cc(F)c(N[C@@H]2CCCC[C@@H]2N)nc1Nc1cccc(-n2cncn2)c1" for full length active recombinant SYK enzyme (Homo sapiens, UniProt P43405).
Output: 8.00 to 9.00

Task: GET /values?readout=pIC50&system=full length active recombinant SYK enzyme (Homo sapiens, UniProt P43405)&item= "Cc1cc(Nc2cc(NC[C@@H](N)CC(C)C)ccc2C(N)=O)sn1"
Output: 6.00 to 7.00

The measured values listed here are drawn from patent US8846928B2.
